target: T1, HER2 on the surface of HER2+ cancer cells (BT474, SKOV-3) (human, UniProt P04626 23-1255); test: flow cytometry on BT-474 cells (HER2+), 100 nM binding sites
T1 construct: whole, on cells; also called human epidermal growth factor receptor 2
readout.label: FITC- (%)
Answers are plain numbers, in %.

Worked set:
[
  {
    "binder": "F4 anti-HER2 VHH (VHH) VHH: QVQLQESGGGLVQAGGSLKLSCAASGRTLSAYVVGWFRQAPGKERESVAAIGWSSRSPYYPDSVKGRFTISEDNTKNTVYLQMNSLKPDDTAVYYCAADSYPRRWDRESDFGSWGQGTQVTVSS",
    "reported.measurement": 1.45
  },
  {
    "binder": "D6 anti-HER2 VHH (VHH) VHH: QVQLQESGGGLVQAGGSLTLSCAASGRTFSTYVVGWFRQAPGKERESVAAIGWASNSPYYADSVKGRFTISRDNTKNTVYLQMKSLKPDDTAVYYCAADSYPRRWDRESDFGSWGQGTQVTVSS",
    "reported.measurement": 1.86
  }
]

Continue with the next binder.
// query FITC- (%) value for entry E5 anti-HER2 VHH (VHH, also called E5 clone) VHH: QVQLQESGGGLVQAGGSLRLDCAASGRTLSSYVVGWFRQAPGKEREVVAAIGWSRTSTFYTDSVKGRFTISRDNTENTVYLQMNSLKPGDTAVYYCAADSSPRRWDRESDFGSWGQGTQVTVSS
// result 1.59
